tested on: DeltatarO mutant; test: S. aureus survival, RN4220 and DeltatarO strains – OD600, teichoic acid synthesis inhibitors, primary screen (AID 463173); settings: S. aureus RN4220 wild type/DeltatarO growth, OD600, 18 h, hits give low values, screened at 18.75 µg/mL (by protocol)
Among all 52,000 compounds or so, about 4,300 (8.3%) were called active. The sample as a whole holds a higher share of actives than the screen did.
Value type: survival (%)
Just the number in %, nothing appended.

Sample records with survival:
COc1ccc(-c2cc(-c3ccc(C)cc3)nc3c2COc2ccccc2-3)cc1
72
CCOC(=O)c1ccccc1Nc1cc(C)nc2nc(-c3ccco3)nn12
128
Cc1ccccc1-c1nc(CNC(=O)Nc2ccccc2)c(C)o1
89

[in] survival of `O=C(NCCn1cc(SCc2ccc(F)cc2)c2ccccc21)c1c(F)cccc1F` on DeltatarO mutant?
[out] 53

[in] survival of `CCOc1ccc(OCC)c(Nc2cc(C)nc3nc(-c4ccco4)nn23)c1` on DeltatarO mutant?
[out] 17

[in] survival of `COC(=O)c1cc2occc2n1CC(=O)Nc1ccc(C(C)C)cc1` on DeltatarO mutant?
[out] 93

[in] survival of `O=C(NCCn1cc(SCc2ccc(Br)cc2)c2ccccc21)c1cccs1` on DeltatarO mutant?
[out] 110

// data source = PubChem BioAssay AID463173
